B1: H2-Kb / B3 (parent)
chain 1: GQQVKQSSPSLTVQEGGISILNCDYENDMFDYFAWYKKYPDNSPTLLISVRSNVDKREDGRLTVFLNKSGKHFSLHITASQPEDTAVYLCAAGNTGYQNFYFGKGTSLTVIP
chain 2: DSGVVQSPRHIIKEKGGRSVLTCIPISGHSNVVWYQQTLGKELKFLIQHYEKVERDKGFLPSRFSVQQFDDYHSEMNMSALELEDSAMYFCASSSLQGARNQAPLFGEGTRLSVL
chain 3: not shown
chain 4: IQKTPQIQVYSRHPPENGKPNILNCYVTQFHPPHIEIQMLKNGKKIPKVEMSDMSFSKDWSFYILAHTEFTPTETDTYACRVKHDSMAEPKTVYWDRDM
chain 5: SIINFEKL

Variants of: B1
assayOverview: % of reporter cells activated (NFAT-GFP), raw; further: test concentration or dose not given here
measurementConditions: with B3; scale: % of reporter cells activated
measurementKind: ratio to parent

mutationLabel	observedMeasurement
chain 5 F5C	0.411
chain 5 K7L	0.488
chain 5 E6Y	1.97
chain 5 I3K	0.322
chain 5 I3D	0.144
chain 5 S1Q	0.266
chain 5 F5T	0.842
chain 5 I2P	0.386
chain 5 L8M	0.809
chain 5 I2G	1.01
